Data provenance is patent US20250353820A1.

assay system: human HSV DNA polymerase UL30 (Human herpesvirus 1 (strain 17) (HHV-1) (Human herpes simplex virus 1))
assay text: biochemical
experimental parameters: 625 pM HSV polymerase, 20 minutes at room temperature; read-out: HSV-polymerase Biochemical IC50
Counter-ions that a name gives are not always drawn.
measurement kind: log10 IC50 (log10 of the value in nM)
All values: log10 IC50 [nM].

Consider the following illustrative entries.
* Cn1nc(C2=NOC(c3ccc(C#N)cc3)C2)c2c1C(=O)N(CC1(S(=O)(=O)C3CC3)CC1)CC2 (centres unmarked) [Example 31] | 2.47
* CC(C)(O)Cn1nc(C(=O)NCc2ccc(Cl)cc2)c2c1C(=O)N(CC1(S(C)(=O)=O)CC1)CC2 [Example 231] | 2.44

The value of log10 IC50 measured for the compound Cn1nc(C(=O)NCc2ccc(C#N)cc2)c2c1C(=O)N(CC1(S(=O)(=O)C3(C)COC3)CC1)CC2 [Example 172] turned out to be 1.80

For record Cn1nc(C(=O)NCc2ccc(Cl)cc2)c2c1C(=O)N(CC1(S(=O)(=O)C(C)(C)[C@H](N)CO)CC1)CC2 [Example 214, hydrochloride] the listed log10 IC50 is 1.51

log10 IC50 for CC(C)(O)Cn1nc(C(=O)NCc2ccc(Cl)cc2)c2c1C(=O)N(CC1(S(=O)(=O)C3CC3)CC1)CC2 [Example 229] is 1.49

// field: log10 IC50; key: CS(=O)(=O)C1(CN2CCc3c(C(=O)NCc4ccc(C#N)cc4)nn(CC4(CO)CC4)c3C2=O)CC1 [Example 48] ; value = 2.90

Just so you know, measured log10 IC50 for Cn1nc(C(=O)NCc2ccc(Cl)nc2)c2c1C(=O)N(CC1(S(=O)(=O)C(C)(C)CO)CC1)CC2 [Example 51] came out at 1.95

// CC(C)(O)Cn1nc(C(=O)NCc2ccc(C#N)cc2)c2c1C(=O)N(CC1(S(=O)(=O)C(C)(C)CO)CC1)CC2 [Example 235] : log10 IC50 value = 1.20

Entry Cn1nc(C(=O)NCc2ccc(Cl)cc2)c2c1C(=O)N(CC1(S(=O)(=O)C(C)(C)C(O)CN)CC1)CC2 (single isomer, unassigned) [Example 200] ; log10 IC50 = 1.15

The compound Cn1nc(-c2nnc(Cc3ccc(C#N)cc3)o2)c2c1C(=O)N(CC1(S(=O)(=O)C3CC3)CC1)CC2 [Example 26] showed log10 IC50 equal to 3.60

Per the record, CC1(S(=O)(=O)C2(CN3CCc4c(C(=O)NCc5ccc(C#N)cc5)nn(CCO)c4C3=O)CC2)CC1 [Example 217] has log10 IC50 of 1.41

The compound listed as Cc1ncccc1NS(=O)(=O)C1(CN2CCc3c(C(=O)NCc4ccc(C#N)cc4)nn(C)c3C2=O)CC1 [Example 161] has a reported log10 IC50 of 1.60

Measured log10 IC50 of CN1CCN(S(=O)(=O)C2(CN3CCc4c(C(=O)NCc5ccc(C#N)cc5)nn(C)c4C3=O)CC2)CC1 [Example 136] : 2.39

Reported log10 IC50 of Cn1nc(C(=O)COc2ccc(C#N)cc2)c2c1C(=O)N(CC1(S(=O)(=O)C3CC3)CC1)CC2 [Example 25] : 1.72
